- MEASUREMENT_NOTES: Ex vivo biodistribution in mice with MM1S tumor xenografts
- ASSAY_CONTEXT: both sexes, NSG, mouse, liver, 2 mg/kg, 60 min p.i.; MM1S xenograft mice with blocking dose (2 mg kg^−1 AJ206); read-out: uptake in liver
REPORTED_ENDPOINT: tissue uptake at 1 h (%ID/g)

* CC[C@H](C)[C@@H]1NC(=O)[C@@H]2CCCN2C(=O)[C@H](Cc2ccccc2)NC(=O)[C@H](CC(=O)O)NC(=O)[C@H](C)NC(=O)[C@@H]2CSCc3cc(cc(c3)CSC[C@H](NC(=O)[C@H](C)NC(=O)CCOCCOCCOCCNC(=O)CN3CCN(CC(=O)O)CCN(CC(=O)O)CC3)C(=O)N[C@@H](C(C)C)C(=O)N3CCC[C@H]3C(=O)N2)CSC[C@@H](C(N)=O)NC(=O)[C@H](Cc2ccc(O)cc2)NC(=O)[C@H](Cc2c[nH]c3ccccc23)NC1=O [[^68Ga]Ga‐AJ206, metal not drawn] | 1.45
